Data credit: ChEMBL document CHEMBL1129561

biological target: UniProtKB P08235; test: Inhibitory activity against human mineralocorticoid receptor (hMR)
Sequence (P08235 whole entry): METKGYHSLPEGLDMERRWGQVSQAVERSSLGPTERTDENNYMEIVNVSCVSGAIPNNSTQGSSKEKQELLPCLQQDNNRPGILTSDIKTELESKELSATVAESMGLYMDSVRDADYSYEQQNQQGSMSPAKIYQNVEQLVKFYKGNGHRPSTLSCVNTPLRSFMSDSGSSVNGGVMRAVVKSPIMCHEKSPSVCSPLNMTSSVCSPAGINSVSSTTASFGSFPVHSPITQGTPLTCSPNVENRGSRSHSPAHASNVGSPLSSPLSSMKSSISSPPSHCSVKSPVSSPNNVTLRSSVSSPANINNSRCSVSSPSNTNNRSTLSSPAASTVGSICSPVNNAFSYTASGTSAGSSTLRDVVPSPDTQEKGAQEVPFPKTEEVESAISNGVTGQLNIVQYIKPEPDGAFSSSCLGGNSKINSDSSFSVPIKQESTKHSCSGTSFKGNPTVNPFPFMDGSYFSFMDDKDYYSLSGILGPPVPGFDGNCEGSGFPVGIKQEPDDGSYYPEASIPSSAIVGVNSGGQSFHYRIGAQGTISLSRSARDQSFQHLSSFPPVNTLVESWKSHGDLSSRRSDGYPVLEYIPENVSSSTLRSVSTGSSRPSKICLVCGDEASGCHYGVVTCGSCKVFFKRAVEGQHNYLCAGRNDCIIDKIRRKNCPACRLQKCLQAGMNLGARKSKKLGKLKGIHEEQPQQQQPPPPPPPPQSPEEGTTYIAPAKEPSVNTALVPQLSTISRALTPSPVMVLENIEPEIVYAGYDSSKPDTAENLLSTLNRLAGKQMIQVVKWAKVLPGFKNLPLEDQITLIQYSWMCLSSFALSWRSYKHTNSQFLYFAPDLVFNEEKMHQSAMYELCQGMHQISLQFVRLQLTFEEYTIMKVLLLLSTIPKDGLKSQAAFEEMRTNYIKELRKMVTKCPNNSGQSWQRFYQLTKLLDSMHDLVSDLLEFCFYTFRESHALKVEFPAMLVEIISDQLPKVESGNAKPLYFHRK

smilesRepr: C=C1CCCC(C)(C)[C@H]1Cc1cc(OC)c(Br)cc1O
outputUnit: nM
IC50: 1500

###

Biological target: Progesterone receptor (Homo sapiens, UniProt P06401)
Sequence (P06401 whole entry): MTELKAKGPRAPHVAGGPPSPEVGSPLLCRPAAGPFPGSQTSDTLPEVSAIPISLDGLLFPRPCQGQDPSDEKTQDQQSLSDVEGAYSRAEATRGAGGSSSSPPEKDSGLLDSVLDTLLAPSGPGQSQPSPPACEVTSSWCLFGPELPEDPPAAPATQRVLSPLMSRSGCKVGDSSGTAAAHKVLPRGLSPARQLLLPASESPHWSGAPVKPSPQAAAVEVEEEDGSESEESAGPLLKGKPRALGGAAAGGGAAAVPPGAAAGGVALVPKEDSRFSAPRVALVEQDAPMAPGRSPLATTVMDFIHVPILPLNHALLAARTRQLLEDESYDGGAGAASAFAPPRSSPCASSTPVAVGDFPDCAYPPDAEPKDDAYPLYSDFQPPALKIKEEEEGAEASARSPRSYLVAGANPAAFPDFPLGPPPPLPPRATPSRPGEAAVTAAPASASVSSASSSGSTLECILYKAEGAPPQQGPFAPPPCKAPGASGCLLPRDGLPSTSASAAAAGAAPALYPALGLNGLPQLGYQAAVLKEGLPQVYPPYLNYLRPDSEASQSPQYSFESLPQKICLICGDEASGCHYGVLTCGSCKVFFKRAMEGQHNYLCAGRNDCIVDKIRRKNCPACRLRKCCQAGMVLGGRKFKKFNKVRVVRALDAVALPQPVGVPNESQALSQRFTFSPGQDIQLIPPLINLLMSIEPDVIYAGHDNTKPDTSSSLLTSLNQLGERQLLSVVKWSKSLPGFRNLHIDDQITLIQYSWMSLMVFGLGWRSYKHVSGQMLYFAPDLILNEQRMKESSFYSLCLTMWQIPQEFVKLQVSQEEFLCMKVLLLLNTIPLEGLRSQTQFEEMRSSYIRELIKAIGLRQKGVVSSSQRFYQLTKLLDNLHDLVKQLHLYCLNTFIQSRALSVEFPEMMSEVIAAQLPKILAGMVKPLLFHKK

compound: CCOC1=CC(=O)C(Cc2ccc([N+](=O)[O-])cc2)C(C)(C)C1 (configuration not stated)
outputUnit: nM
sign: >
Ki: 10000
--
compound: C=C1C(C)=CCC(C)(C)[C@@H]1Cc1cc(OC)c(Br)cc1OC(C)=O
outputUnit: nM
sign: =
Ki: 455
--
compound: C=C1C=C(C)CC(C)(C)C1Cc1ccc([N+](=O)[O-])cc1 (configuration not stated)
outputUnit: nM
sign: =
Ki: 53.5
--
compound: C=C1C[C@H](CO)CC(C)(C)[C@@H]1Cc1cc(OC)c(Br)cc1O
outputUnit: nM
sign: =
Ki: 3250
--
compound: C=C1CCC[C@H](C)[C@H]1Cc1cc(OC)c(Br)cc1O
outputUnit: nM
sign: =
Ki: 71
--
compound: C=C1C=C(C)CC(C)(C)C1C/C=C/c1cc(OC)c(Br)cc1O (configuration not stated)
outputUnit: nM
sign: =
Ki: 84

###

Target: Glucocorticoid receptor (Homo sapiens)
Sequence (P04150 whole entry): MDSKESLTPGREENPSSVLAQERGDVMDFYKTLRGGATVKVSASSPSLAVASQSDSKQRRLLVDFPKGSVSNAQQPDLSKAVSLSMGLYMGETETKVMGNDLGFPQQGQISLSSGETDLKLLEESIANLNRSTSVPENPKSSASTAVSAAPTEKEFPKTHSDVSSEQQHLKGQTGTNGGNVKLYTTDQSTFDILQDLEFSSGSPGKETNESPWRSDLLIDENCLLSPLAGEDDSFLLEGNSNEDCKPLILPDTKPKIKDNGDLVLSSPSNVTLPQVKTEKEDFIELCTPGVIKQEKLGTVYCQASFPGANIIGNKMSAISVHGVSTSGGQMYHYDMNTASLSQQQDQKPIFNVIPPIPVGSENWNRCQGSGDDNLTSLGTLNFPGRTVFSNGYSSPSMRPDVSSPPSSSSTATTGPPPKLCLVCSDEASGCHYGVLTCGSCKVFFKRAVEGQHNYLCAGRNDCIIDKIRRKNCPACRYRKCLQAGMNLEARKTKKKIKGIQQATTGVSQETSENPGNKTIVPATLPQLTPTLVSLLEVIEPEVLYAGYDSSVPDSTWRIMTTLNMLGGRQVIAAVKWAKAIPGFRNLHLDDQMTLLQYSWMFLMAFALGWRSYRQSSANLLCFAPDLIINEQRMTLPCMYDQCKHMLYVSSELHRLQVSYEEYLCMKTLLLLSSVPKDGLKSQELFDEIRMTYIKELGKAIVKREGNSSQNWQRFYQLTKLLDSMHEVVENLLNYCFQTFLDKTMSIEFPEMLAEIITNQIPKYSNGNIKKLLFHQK
pKi: −log10 of the molar value.
# pKi annotations
readout: pKi

compound: C=C1C=C(C)CC(C)(C)C1Sc1ccc([N+](=O)[O-])cc1 (stereo not given)
experimentalTarget: Glucocorticoid receptor (Homo sapiens)
readout: pKi
numericReadout: 5.09
--
compound: C=C1C=C(C)CC(C)(C)C1Cc1ccc([N+](=O)[O-])cc1 (stereo not given)
experimentalTarget: Glucocorticoid receptor (Homo sapiens)
readout: pKi
numericReadout: 5.27
--
compound: C=C1C(C)=CCC(C)(C)[C@@H]1Cc1cc(OC)c(Br)cc1OC(C)=O
experimentalTarget: Glucocorticoid receptor (Homo sapiens)
readout: pKi
numericReadout: 5.39
--
compound: C=C1CCCC(C)(C)C1Cc1cc(OC)c(Br)cc1O (stereo not given)
experimentalTarget: Glucocorticoid receptor (Homo sapiens)
readout: pKi
numericReadout: 5.66
--
compound: CN(C)c1ccc([C@H]2CC3(C)[C@@H](CC[C@]3(O)CCCO)[C@@H]3CCC4=CC(=O)CCC4=C32)cc1 (single isomer, unassigned) [ONAPRISTONE]
experimentalTarget: Glucocorticoid receptor (Homo sapiens)
readout: pKi
numericReadout: 7.38
--
compound: C=C1C=C(C)CC(C)(C)C1Cc1cc(OC)c(Br)cc1OC(C)=O (stereo not given)
experimentalTarget: Glucocorticoid receptor (Homo sapiens)
readout: pKi
numericReadout: 5.66
--
compound: C=C1CCC[C@@H](C)[C@@H]1Cc1cc(OC)c(Br)cc1O
experimentalTarget: Glucocorticoid receptor (Homo sapiens)
readout: pKi
numericReadout: 5.64
--
compound: C=C1CCCC(C)(C)[C@@H]1Cc1cc(OC)c(Br)cc1O
experimentalTarget: Glucocorticoid receptor (Homo sapiens)
readout: pKi
numericReadout: 5.75
--
compound: C=C1C=C(C)CC(C)(C)C1C/C=C/c1cc(OC)c(Br)cc1O (stereo not given)
experimentalTarget: Glucocorticoid receptor (Homo sapiens)
readout: pKi
numericReadout: 5.35
--
compound: C=C1C=C(C)CC(C)(C)C1Cc1cc(OC)c(Br)cc1O (stereo not given)
experimentalTarget: Glucocorticoid receptor (Homo sapiens)
readout: pKi
numericReadout: 5.90
